# target under test: PI3K-alpha (Homo sapiens)
# assay method text: PI3K-alpha fluorescence polarization assay
# Type: biochemical
# experimental context: read-out: PI3Kα Avg. IC50
attribute measured: pIC50
// returns pIC50 (minus log10 of molar concentration), number only

Use these answered entries as a reference point.
# structure notation, target under test, pIC50
data = [
    ("CCn1c(C)c(/C=C2\\Oc3ccc(NC(=O)Nc4ccc(C(=O)C5CCN(C)CC5)cc4)cc3C2=O)c2cc(OC)ccc21", "PI3K-alpha (Homo sapiens)", 9.05),
    ("N#CCCCCn1c(-c2ccccc2)c(C=C2Oc3cc(O)cc(O)c3C2=O)c2ccccc21", "PI3K-alpha (Homo sapiens)", 6.12),
    ("CCn1c(C)c(/C=C2\\Oc3ccc(NC(=O)Nc4ccc(NC(=O)CCN(C)C)cc4)cc3C2=O)c2cc(OC)ccc21", "PI3K-alpha (Homo sapiens)", 9.52),
    ("CCc1cc(O)cc2c1C(=O)C(=Cc1c[nH]c3ccc(OC)cc13)O2", "PI3K-alpha (Homo sapiens)", 6.88),
    ("O=C1/C(=C/c2c[nH]c3ccc(Cl)cc23)Oc2c1ccc(O)c2O", "PI3K-alpha (Homo sapiens)", 6.37),
    ("CNC(=O)Nc1ccc2c(c1)C(=O)/C(=C/c1c[nH]c3c(/C=C/CN4CCOCC4)cc(OC)cc13)O2", "PI3K-alpha (Homo sapiens)", 6.79),
]

Record request: pIC50 value, item `COc1ccc2c(c1)c(C=C1Oc3c(ccc(O)c3O)C1=O)c(C)n2CCCCN1CCOCC1`
6.08

Look at this molecule and give its reported pIC50. `CN1CCN(c2cccc3c2c(/C=C2\Oc4cc(O)cc(O)c4C2=O)cn3C)CC1`
5.37

GET /values?readout=pIC50&item= `CN(C)c1cccc(-c2cccc3c2c(/C=C2\Oc4cc(O)cc(O)c4C2=O)cn3C)c1`
5.56

Reported pIC50, molecule `CNC(=O)Nc1ccc2c(c1)C(=O)/C(=C/c1c(C)n(CCCn3ccnc3)c3ccc(OC)cc13)O2` : ____
7.51

Tell me the measured pIC50 of `COc1ccc2c(c1)c(/C=C1\Oc3cc(O)cc(C)c3C1=O)cn2C` , please.
7.11

// returns reported pIC50 for input `CCn1c(C)c(/C=C2\Oc3ccc(NC(=O)Nc4ccc(OCCCCN(C)C)cc4)cc3C2=O)c2cc(OC)ccc21`
8.54

Item under review: `CNC(=O)Nc1ccc2c(c1)C(=O)/C(=C/c1c(-c3cnn(C)c3)[nH]c3c(F)cc(OC)cc13)O2` . Reported pIC50?
8.56

Please report the recorded pIC50 for `COc1ccc2c(c1)c(/C=C1\Oc3cc(O)cc(C)c3C1=O)c(C)n2CCCN(C)C` .
7.31

----------
# target under test: human TOR (Homo sapiens, UniProt P42345)
# Construct: FLAG
# assay method text: mTOR enzyme assay (DELFIA, His6-S6K substrate)
# Type: biochemical
# experimental context: read-out: mTOR Kinase Avg. IC50
Quick reference: log10(IC50) of the listed items.
Scale: decimal log of IC50, IC50 in nM.

Recorded results for 4 compounds are shown here.
# structure notation, quantitative readout
rows = [
    ("COc1ccc2[nH]cc(/C=C3\\Oc4cc(O)ccc4C3=O)c2c1", 3.27),
    ("COc1ccc2c(c1)c(/C=C1\\Oc3cc(O)ccc3C1=O)c(C1CCCC1)n2CCN1CCN(C)CC1", 1.67),
    ("CCn1c(C)c(/C=C2\\Oc3ccc(NC(=O)Nc4ccc(N(C)C(=O)CCN(C)C)cc4)cc3C2=O)c2cc(OC)ccc21", 2.19),
    ("O=C1C(=Cc2c(-c3ccccc3)[nH]c3ccccc23)Oc2cc(O)cc(O)c21", 2.11),
]

Any idea what its log10(IC50) is? The compound is `CN1CCN(c2cccc3c2c(/C=C2\Oc4cc(O)cc(O)c4C2=O)cn3C)CC1`
1.53

I would be grateful if you could share the reported log10(IC50) for `CCn1c(C)c(/C=C2\Oc3ccc(NC(=O)Nc4ccc(OCCCN(C)C)cc4)cc3C2=O)c2cc(OC)ccc21` .
1.94

----------
# target under test: PI3K-gamma (Homo sapiens, UniProt P48736)
# Sequence (P48736 whole entry, species assumed): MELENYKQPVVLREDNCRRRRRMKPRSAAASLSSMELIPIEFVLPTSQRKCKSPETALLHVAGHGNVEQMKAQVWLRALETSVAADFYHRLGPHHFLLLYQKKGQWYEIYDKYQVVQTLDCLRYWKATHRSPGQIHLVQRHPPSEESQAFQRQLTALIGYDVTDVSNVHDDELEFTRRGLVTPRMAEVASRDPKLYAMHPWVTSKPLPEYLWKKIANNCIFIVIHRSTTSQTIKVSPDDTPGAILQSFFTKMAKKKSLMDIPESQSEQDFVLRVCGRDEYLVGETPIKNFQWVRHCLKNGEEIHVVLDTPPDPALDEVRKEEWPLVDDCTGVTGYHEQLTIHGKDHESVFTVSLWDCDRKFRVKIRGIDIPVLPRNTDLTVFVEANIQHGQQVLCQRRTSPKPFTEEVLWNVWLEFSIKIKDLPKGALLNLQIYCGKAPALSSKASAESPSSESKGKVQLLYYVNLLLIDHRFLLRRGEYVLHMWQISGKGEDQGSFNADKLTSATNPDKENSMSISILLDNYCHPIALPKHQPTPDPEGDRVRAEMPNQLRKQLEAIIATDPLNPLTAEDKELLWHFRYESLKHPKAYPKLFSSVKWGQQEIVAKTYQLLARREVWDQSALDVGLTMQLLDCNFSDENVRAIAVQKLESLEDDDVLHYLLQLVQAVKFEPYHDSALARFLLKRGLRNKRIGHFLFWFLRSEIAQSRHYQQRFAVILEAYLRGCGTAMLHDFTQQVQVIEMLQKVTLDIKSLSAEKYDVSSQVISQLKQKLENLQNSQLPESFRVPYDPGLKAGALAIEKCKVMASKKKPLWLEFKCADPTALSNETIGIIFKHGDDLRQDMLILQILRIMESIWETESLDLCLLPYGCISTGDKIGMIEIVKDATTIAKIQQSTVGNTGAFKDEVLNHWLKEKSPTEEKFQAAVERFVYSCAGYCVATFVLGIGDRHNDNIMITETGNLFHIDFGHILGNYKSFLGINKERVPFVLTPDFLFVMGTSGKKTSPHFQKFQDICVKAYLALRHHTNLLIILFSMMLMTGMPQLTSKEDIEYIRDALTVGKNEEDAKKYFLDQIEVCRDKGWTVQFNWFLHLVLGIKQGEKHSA
# assay method text: PI3K-gamma fluorescence polarization assay
# Assay type: biochemical
# experimental context: PI3Kγ Avg. IC50
attribute measured: IC50 (nM)
Hi! Could you send only the number? It should be in nM, unit omitted.

Worked examples follow.
# structure notation, target under test, u, IC50
rows = [
    ("COc1ccc2[nH]c(-c3c(C)nn(C)c3C)c(/C=C3\\Oc4ccc(NC(=O)Nc5ccc(N(C)C(=O)CCN(C)C)cc5)cc4C3=O)c2c1", "PI3K-gamma (Homo sapiens, UniProt P48736)", "nM", 48),
    ("COc1ccc2c(c1)c(/C=C1\\Oc3cc(O)ccc3C1=O)c(-c1c(C)noc1C)n2CCN1CCN(C)CC1", "PI3K-gamma (Homo sapiens, UniProt P48736)", "nM", 942),
    ("COc1ccc2c(c1)c(/C=C1\\Oc3cc(O)cc(F)c3C1=O)c(C)n2CCCN(C)C", "PI3K-gamma (Homo sapiens, UniProt P48736)", "nM", 475),
]

Looking for the measured IC50 of `COc1ccc2c(c1)c(/C=C1\Oc3cc(O)cc(O)c3C1=O)c(C1CCCC1)n2CCN1CCN(C)CC1` , can you help?
116

Which measured IC50 value corresponds to `CCn1c(C)c(/C=C2\Oc3ccc(NC(=O)Nc4ccc(OCCCNC)cc4)cc3C2=O)c2cc(OC)ccc21` ?
11

----------
Each entry below carries its recorded pIC50.
# target under test: PI3K-alpha (Homo sapiens, UniProt P42336)
# Sequence (P42336 whole entry, species assumed): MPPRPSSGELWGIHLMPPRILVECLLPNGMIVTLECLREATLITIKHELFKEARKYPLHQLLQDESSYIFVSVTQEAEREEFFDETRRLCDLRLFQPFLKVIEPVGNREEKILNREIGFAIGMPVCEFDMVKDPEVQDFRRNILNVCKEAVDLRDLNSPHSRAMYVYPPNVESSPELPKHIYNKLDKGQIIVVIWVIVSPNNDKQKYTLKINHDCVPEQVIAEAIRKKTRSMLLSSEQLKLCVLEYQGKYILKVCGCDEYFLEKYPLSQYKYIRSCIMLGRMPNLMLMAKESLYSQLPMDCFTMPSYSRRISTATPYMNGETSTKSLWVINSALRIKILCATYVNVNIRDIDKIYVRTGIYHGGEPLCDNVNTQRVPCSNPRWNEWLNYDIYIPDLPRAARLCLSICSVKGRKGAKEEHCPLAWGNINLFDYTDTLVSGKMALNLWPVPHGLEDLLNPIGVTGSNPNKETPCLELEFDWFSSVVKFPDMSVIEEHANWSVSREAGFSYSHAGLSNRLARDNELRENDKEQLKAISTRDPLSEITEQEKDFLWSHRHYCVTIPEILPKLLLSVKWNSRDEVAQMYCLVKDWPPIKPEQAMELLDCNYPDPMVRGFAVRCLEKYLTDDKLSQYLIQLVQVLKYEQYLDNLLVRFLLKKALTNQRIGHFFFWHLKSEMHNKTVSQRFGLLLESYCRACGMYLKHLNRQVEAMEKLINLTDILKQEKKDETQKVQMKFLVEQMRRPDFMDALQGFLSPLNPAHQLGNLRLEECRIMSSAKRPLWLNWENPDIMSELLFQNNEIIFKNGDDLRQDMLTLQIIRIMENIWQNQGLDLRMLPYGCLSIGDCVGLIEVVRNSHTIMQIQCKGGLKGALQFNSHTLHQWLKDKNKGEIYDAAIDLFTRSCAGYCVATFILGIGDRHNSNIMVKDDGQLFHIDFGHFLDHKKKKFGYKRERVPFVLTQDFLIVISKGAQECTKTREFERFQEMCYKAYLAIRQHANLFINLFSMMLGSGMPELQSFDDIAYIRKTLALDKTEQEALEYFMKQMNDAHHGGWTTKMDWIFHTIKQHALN
# Sequence (P27986 whole entry partner, species assumed): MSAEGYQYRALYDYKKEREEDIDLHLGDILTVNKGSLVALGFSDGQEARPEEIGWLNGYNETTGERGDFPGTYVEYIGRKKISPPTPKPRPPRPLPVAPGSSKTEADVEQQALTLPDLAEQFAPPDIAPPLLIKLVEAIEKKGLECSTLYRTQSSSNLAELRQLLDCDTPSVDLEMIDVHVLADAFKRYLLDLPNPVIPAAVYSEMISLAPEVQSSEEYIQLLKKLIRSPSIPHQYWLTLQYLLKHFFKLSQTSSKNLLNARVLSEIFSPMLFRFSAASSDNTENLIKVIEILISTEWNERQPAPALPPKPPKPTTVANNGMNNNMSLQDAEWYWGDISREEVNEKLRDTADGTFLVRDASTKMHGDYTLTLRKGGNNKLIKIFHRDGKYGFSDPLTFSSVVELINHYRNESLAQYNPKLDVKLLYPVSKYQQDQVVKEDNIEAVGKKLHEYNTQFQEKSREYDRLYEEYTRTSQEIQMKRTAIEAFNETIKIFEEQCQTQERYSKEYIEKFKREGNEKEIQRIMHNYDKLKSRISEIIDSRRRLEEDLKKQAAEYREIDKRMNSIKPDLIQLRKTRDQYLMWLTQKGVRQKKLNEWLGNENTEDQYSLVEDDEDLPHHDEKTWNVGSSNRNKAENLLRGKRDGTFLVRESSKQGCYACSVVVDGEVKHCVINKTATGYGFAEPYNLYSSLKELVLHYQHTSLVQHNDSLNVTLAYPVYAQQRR
# assay method text: PI3K-alpha fluorescence polarization assay
# Format: biochemical
# experimental context: read-out: PI3Kα Avg. IC50
pIC50 here: minus log base 10 of the concentration, concentration in moles per litre.

For orientation, consider the following solved cases.
# compound, target under test, pIC50
rows = [
    ("Cn1c(-c2ccsc2)c(C=C2Oc3cc(O)cc(O)c3C2=O)c2ccccc21", "PI3K-alpha (Homo sapiens, UniProt P42336)", 6.08),
    ("O=C1/C(=C/c2c[nH]c3ccc(Br)cc23)Oc2c1ccc(O)c2O", "PI3K-alpha (Homo sapiens, UniProt P42336)", 6.51),
    ("Cn1c(-c2ccccc2)c(/C=C2\\Sc3ccccc3C2=O)c2ccccc21", "PI3K-alpha (Homo sapiens, UniProt P42336)", 5.55),
    ("O=C1C(=Cc2c[nH]c3cc(C(F)(F)F)ccc23)Oc2cc(O)cc(O)c21", "PI3K-alpha (Homo sapiens, UniProt P42336)", 5.94),
    ("COc1ccc2c(c1)c(/C=C1\\Oc3cc(O)ccc3C1=O)c(C1CC1)n2CCN1CCN(C)CC1", "PI3K-alpha (Homo sapiens, UniProt P42336)", 7.98),
    ("COc1ccc2c(c1)c(/C=C1\\Oc3ccc(NC(=O)Nc4cccnc4)cc3C1=O)c(C)n2CCN1CCN(C)CC1 [Compound 617]", "PI3K-alpha (Homo sapiens, UniProt P42336)", 8.72),
]

I am curious: what pIC50 value has been reported for `COCCn1c(-c2ccccc2)c(C=C2Oc3cc(O)cc(O)c3C2=O)c2ccccc21` ?
5.68

Fill in: pIC50 of `Cn1cc(/C=C2\Oc3cc(O)cc(O)c3C2=O)c2c(-c3cccnc3)cccc21` is ___
5.55

----------
# target under test: PI3K-alpha (Homo sapiens)
# assay method text: PI3K-alpha fluorescence polarization assay
# Format: biochemical
# experimental context: read-out: PI3Kα Avg. IC50
pIC50: −log10 of the molar value.
Cut-off 8 on pIC50, inclusive. At or above means TRUE; below means FALSE.

# count of solved cases: 5
# structure notation, target under test, answer label
rows = [
    ("CC(=O)Nc1cccc(-c2cccc3c2c(/C=C2\\Oc4cc(O)cc(O)c4C2=O)cn3C)c1", "PI3K-alpha (Homo sapiens)", "FALSE"),
    ("COc1ccc2[nH]cc(/C=C3\\Oc4c(ccc(O)c4O)C3=O)c2c1", "PI3K-alpha (Homo sapiens)", "FALSE"),
    ("CNC(=O)Nc1ccc2c(c1)C(=O)/C(=C/c1c(C3CCCC3)n(CCN3CCN(C)CC3)c3ccc(OC)cc13)O2", "PI3K-alpha (Homo sapiens)", "TRUE"),
    ("COc1ccc2c(c1)c(/C=C1\\Oc3cc(O)cc(O)c3C1=O)c(C(F)(F)F)n2CCN1CCN(C)CC1", "PI3K-alpha (Homo sapiens)", "TRUE"),
    ("COc1cc(O)cc2c1C(=O)/C(=C/c1c(-c3ccccc3)n(C)c3ccccc13)O2", "PI3K-alpha (Homo sapiens)", "FALSE"),
]

Switching to the query record.
Given the entry `CNC(=O)Nc1cc(C)c2c(c1)C(=O)/C(=C/c1c(C)n(CCN3CCN(C)CC3)c3ccc(OC)cc13)O2` , answer whether its pIC50 meets or surpasses 8.
FALSE
